All figures here come from patent US20230331820A1.

Quick list: RU per entry.
# ASSAYED_SYSTEM: gEgI WT: HSV2 gEgI heterodimer comprising gE and gI wildtype ectodomains (HSV2, UniProt P89475 21-416; P06764 21-256)
# EXPERIMENT_DESCRIPTION: SPR binning; gEgI captured by mAb 19
The answer is to be given in RU; state only the numeric part.

[Q] Param item = mAb clone 20 (antibody, V domains shown) VH: QVQLQQSGAELVRPGTSVKVSCKASGYAFTNYLIEWVKQRPGQGLEWIGVINPGSGGTNYNEKFKGKATLTADKSSSTAYMQLSSLTSDDSAVYFCARSHYGNYYAMDYWGQGTSVTVSS VL: NIVLTQSPASLAVSLGQRATISCRASESVDSYGNSFMHWYQQKPGQPPKLLIYLASNLESGVPARFSGSGSRTDFTLTIDPVEADDAATYYCQQNNEDPWTFGGGTKLEIK ; retrieve measured RU.
[A] 6.5

[Q] Record request: RU value, item mAb clone 40 (antibody, V domains shown) VH: QIQLVQSGPELKKPGETVKISCKASGYTFTNYGMNWVKQAPGKGLKWMGWINTYTGEPTYADDFKGRFAFSLETSASTAYLQINNLKNEDTATYFCARSLYGYDEGYFDVWGAGTTVTVSS VL: DIQMTQSPASLSASVGETVTITCRASGNIHNYLAWYQQKQGKSPQLLVYNAKTLADGVPSRFSGSGSGTQYSLKINSLQPEDFGSYYCQHFWSTPYTFGGGTKLEIK
[A] 6.4
